Data credit: patent US10548877B2

tested on: UniProt P11229
measurement description: Measurement of M1 receptor positive allosteric modulator (M1PAM) activity (calcium fluorescence, Fluo-4)
condition parameters: inflection point of concentration-dependent curve; CHO-K1 cells stably expressing hCHRM1; in presence of acetylcholine at EC20 (final 0.8-1.0 nM); read-out: IP value
pEC50: −log10 of the molar value.
reported metric: pEC50

Example cases with answers are listed next.
{"columns": ["compound", "reported metric", "assay value"],
 "data": [
  ["COc1c(C(=O)N[C@@H]2CCCC[C@H]2O)cc(Cc2ccc(-c3cn(C)nn3)cc2)c(C)c1C (single isomer, unassigned) [Example 11]", "pEC50", 7.43],
  ["COc1c(C(=O)N[C@H]2CCC[C@@H]2O)cc(Cc2ccc(-c3cn(C)nn3)cc2)c(C)c1C (relative stereo) [Example 4]", "pEC50", 7.64],
  ["COc1c(C(=O)N[C@H]2CCC[C@@H]2O)cc(Cc2ccc(-c3ccn(C)n3)nc2)c(C)c1C [Example 22]", "pEC50", 7.26],
  ["COc1c(C(=O)N[C@H]2CCCC[C@@H]2O)cc(Cc2ccc(-c3cn(C)nn3)cc2)c(C)c1C (single isomer, unassigned) [Example 10]", "pEC50", 8.32],
  ["COc1c(C(=O)N[C@H]2COCC[C@@H]2O)cc(Cc2ccc(-c3cn(C)nc3C)nc2)c(C)c1C [Example 28]", "pEC50", 7.70]
]}

[a] Cc1c(Cc2ccc(-n3cccn3)cc2)cc(C(=O)N[C@H]2COCC[C@@H]2O)c(F)c1C [Example 12]
[b] COc1c(C(=O)N[C@H]2CCCC[C@@H]2O)cc(Cc2ccc(-n3ccnn3)cc2)c(C)c1C [Example 14]
[c] COc1c(C(=O)N[C@H]2CCOC[C@@H]2O)cc(Cc2ccc(-c3cn(C)nn3)cc2)c(C)c1C [Example 24]
[d] COc1c(C(=O)N[C@H]2COCC[C@@H]2O)cc(Cc2ccc(-n3cccn3)cc2)c(C)c1C [Example 27]
Prompt: Thanks in advance: please rank these 4 entries by pEC50, highest to lowest. // ordering of labels required in reply
Response: c, b, a, d

###

tested on: human M1 receptor (hCHRM1) (Homo sapiens, UniProt P11229)
Sequence (P11229 whole entry): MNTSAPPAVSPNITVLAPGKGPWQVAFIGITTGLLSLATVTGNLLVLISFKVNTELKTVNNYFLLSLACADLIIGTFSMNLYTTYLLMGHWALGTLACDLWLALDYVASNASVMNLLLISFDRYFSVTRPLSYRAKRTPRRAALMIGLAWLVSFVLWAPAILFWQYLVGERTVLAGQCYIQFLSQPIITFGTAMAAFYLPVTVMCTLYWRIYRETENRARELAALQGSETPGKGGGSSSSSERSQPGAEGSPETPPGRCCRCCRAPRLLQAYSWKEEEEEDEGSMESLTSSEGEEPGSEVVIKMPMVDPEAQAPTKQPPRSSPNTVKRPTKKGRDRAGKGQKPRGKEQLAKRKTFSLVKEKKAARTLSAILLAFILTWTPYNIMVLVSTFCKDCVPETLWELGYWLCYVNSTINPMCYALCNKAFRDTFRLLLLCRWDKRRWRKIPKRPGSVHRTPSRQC
measurement description: Measurement of M1 receptor positive allosteric modulator (M1PAM) activity (calcium fluorescence, Fluo-4)
condition parameters: inflection point of concentration-dependent curve; CHO-K1 cells stably expressing hCHRM1; in presence of acetylcholine at EC20 (final 0.8-1.0 nM); read-out: IP value
reported metric: EC50 (nM)

Example cases with answers are listed next.
{"columns": ["compound", "EC50 [nM]"],
 "data": [
  ["COc1c(C(=O)N[C@H]2COCC[C@@H]2O)cc(Cc2ccc(-c3cn(C)nn3)cc2)c(C)c1C", 9.4],
  ["CCOc1c(C(=O)N[C@H]2CCCC[C@@H]2O)cc(Cc2ccc(-c3cn(C)nn3)cc2)c(C)c1C", 14],
  ["Cc1c(Cc2ccc(-n3cccn3)cc2)cc(C(=O)N[C@H]2COCC[C@@H]2O)c(F)c1F", 33],
  ["Cc1c(Cc2ccc(-c3cn(C)nn3)cc2)cc(C(=O)N[C@H]2CCCC[C@@H]2O)c(OCC2CC2)c1C", 40],
  ["COc1c(C(=O)N[C@H]2COCC[C@@H]2O)cc(Cc2ccc(-c3ccn(C)n3)cc2)c(C)c1C", 31]
]}

[A] Cc1c(Cc2ccc(-c3cn(C)nn3)cc2)cc(C(=O)N[C@H]2CCCC[C@@H]2O)c(OC(F)F)c1C
[B] COc1c(C(=O)N[C@H]2CCCC[C@@H]2O)cc(Cc2ccc(-c3cn(C)nn3)cc2)c(C)c1C (relative stereo) [Example 5]
[C] COc1c(C(=O)N[C@H]2COCC[C@@H]2O)cc(Cc2ccc(-c3cn(C)nc3C)cc2)c(C)c1C
Prompt: Which order do these items take when sorted by rising EC50? List them. // ordering of labels required in reply
Response: B, A, C
(B: 12 nM, A: 27 nM, C: 48 nM)
